- target-desc: V1A (Homo sapiens, UniProt P37288)
- Construct: purchased NIMH Psychoactive Drug Screening Program (PDSP)
- Sequence (P37288 whole entry): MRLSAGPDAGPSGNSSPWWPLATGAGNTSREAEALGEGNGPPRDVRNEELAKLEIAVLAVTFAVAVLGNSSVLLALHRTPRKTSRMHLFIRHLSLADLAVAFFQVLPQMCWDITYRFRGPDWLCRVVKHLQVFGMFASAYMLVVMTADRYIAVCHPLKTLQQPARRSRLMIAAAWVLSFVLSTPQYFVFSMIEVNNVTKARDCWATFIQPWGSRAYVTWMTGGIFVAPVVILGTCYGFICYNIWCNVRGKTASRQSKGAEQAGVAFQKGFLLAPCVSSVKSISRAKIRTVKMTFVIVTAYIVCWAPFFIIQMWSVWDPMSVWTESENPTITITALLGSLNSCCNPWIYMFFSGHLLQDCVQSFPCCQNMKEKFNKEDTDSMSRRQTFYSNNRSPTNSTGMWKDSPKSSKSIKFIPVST
- protocol-notes: PDSP primary binding V1A
- conditions-used: primary binding, 10,000 nM; last figure of the line = mean of the 4 before it; read-out: V1A, PDSP raw data, mean
- Protocol: To determine if any off-target receptor-binding effects are present, all the novel ligands were sent to the National Institute of Mental Health (NIMH), Psychoactive Drug Screening Program (PDSP). […] The hERG-binding was also determined. […] The binding of a ligand to a receptor, ion channel, or transporter was determined in the […] of 10 µM of the appropriate reference compound. […] Radioactivity was then counted on a Microbeta counter. […]
Some compounds, each annotated with its measured inhibition at 10 µM.
Record the value in %, omitting the unit from your answer.

Check out these entries, answers already filled in.
INSERT INTO measurements (smiles, observed_measurement) VALUES
  ('CC(C)c1noc(-c2ncn3c2[C@@H](C)N=C(c2ccccc2F)c2cc(Cl)ccc2-3)n1', -10.1),
  ('C#Cc1ccc2c(c1)C(c1ccccn1)=N[C@@H](C)c1c(C(=O)N(C)C)ncn1-2', 3.6),
  ('C#Cc1ccc2c(c1)C(c1ccccc1Cl)=N[C@H](C)c1c(C(=O)NC)ncn1-2', 35.1);

Okay, now this compound:
IN: Return reported inhibition at 10 µM for target or system V1A (Homo sapiens, UniProt P37288), item `CCc1noc(-c2ncn3c2CN=C(c2ccccc2F)c2cc(C4CC4)ccc2-3)n1` .
OUT: 21.3

---

- target-desc: Alpha2Beta4 (Rattus norvegicus, UniProt P12389+P12392)
- Construct: purchased NIMH Psychoactive Drug Screening Program (PDSP)
- Sequence (P12389 28-511): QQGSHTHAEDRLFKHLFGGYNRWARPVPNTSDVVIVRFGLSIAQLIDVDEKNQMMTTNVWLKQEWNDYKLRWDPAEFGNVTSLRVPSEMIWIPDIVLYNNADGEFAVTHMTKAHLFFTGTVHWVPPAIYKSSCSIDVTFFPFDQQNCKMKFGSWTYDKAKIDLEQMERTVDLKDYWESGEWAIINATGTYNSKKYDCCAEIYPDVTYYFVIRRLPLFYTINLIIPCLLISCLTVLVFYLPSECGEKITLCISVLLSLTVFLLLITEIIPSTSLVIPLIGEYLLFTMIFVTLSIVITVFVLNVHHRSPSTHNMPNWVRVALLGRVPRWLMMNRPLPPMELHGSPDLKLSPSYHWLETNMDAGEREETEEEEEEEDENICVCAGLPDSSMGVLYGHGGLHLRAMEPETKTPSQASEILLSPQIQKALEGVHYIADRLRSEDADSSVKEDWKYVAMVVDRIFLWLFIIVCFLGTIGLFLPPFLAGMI
- Sequence (P12392 21-495): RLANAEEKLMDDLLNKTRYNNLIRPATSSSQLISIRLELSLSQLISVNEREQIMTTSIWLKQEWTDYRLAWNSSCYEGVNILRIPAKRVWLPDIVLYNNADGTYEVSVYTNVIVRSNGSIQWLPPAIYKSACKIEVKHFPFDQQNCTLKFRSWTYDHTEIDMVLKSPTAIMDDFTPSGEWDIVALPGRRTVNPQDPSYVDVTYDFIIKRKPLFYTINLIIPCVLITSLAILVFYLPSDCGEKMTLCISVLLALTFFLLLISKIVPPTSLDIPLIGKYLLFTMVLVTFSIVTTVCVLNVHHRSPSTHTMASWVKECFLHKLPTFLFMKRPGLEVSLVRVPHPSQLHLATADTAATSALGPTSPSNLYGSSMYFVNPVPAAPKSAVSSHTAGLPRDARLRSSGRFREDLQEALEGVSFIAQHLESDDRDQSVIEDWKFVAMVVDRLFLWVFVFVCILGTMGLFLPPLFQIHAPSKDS
- protocol-notes: PDSP primary binding Alpha2Beta4
- conditions-used: primary binding, 10,000 nM; last figure of the line = mean of the 4 before it; read-out: Alpha2Beta4, PDSP raw data, mean
recorded-metric: inhibition at 10 µM (%)
Please reply with the bare figure in % and do not write the unit itself.

The examples below pair each entry with its known result.
INSERT INTO measurements (smiles, observed_measurement) VALUES
  ('C[C@H]1N=C(c2ccccc2F)c2cc(Cl)ccc2-n2cnc(-c3nc(C4CC4)no3)c21', 0.54),
  ('C[C@H]1N=C(c2ccccc2F)c2cc(-c3ccccc3)ccc2-n2cnc(C(=O)N(C)C)c21', 4.82),
  ('CCc1noc(-c2ncn3c2CN=C(c2ccccc2F)c2cc(C4CC4)ccc2-3)n1', 8.23),
  ('CCc1noc(-c2ncn3c2[C@@H](C)N=C(c2ccccc2F)c2cc(Cl)ccc2-3)n1', 10.9),
  ('C#Cc1ccc2c(c1)C(c1ccccc1F)=N[C@H](C)c1c(C(=S)N(C)C)ncn1-2', 4.82);

IN: Answer with the recorded inhibition at 10 µM of `C#Cc1ccc2c(c1)C(c1ccccn1)=N[C@@H](C)c1c(C(=O)NC)ncn1-2` only.
OUT: 4.5

IN: # return recorded inhibition at 10 µM for input `C#Cc1ccc2c(c1)C(c1ccccc1Cl)=N[C@H](C)c1c(C(=O)NC)ncn1-2`
OUT: 7.67

IN: Fill in reported inhibition at 10 µM for this entry: `CCc1noc(-c2ncn3c2[C@@H](C)N=C(c2ccccc2F)c2cc(-c4ccccc4)ccc2-3)n1`
OUT: 10.7

---

Each entry below carries its reported inhibition at 10 µM.
- target-desc: 5-HT7A (Homo sapiens)
- Construct: purchased NIMH Psychoactive Drug Screening Program (PDSP)
- Sequence (P34969 1-445 isoform P34969-2): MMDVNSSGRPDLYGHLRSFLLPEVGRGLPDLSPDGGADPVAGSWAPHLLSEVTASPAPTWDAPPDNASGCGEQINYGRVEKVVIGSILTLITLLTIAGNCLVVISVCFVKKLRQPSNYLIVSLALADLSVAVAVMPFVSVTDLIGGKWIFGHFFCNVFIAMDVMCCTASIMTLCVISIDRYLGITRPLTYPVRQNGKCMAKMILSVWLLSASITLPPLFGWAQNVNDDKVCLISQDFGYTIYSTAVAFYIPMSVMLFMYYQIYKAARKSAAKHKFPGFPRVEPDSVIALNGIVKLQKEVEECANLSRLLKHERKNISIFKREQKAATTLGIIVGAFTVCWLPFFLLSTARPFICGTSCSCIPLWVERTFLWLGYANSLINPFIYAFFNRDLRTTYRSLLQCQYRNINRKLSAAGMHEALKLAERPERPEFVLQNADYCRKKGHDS
- protocol-notes: PDSP primary binding 5-HT7A
- conditions-used: 1.5 h; primary binding, 10,000 nM; last figure of the line = mean of the 4 before it; read-out: 5-HT7A, PDSP raw data, mean
Write the number in % without appending the unit.

// worked examples, inhibition at 10 µM included
INSERT INTO measurements (smiles, recorded_metric, observed_measurement) VALUES
  ('CCc1noc(-c2ncn3c2[C@@H](C)N=C(c2ccccc2F)c2cc(Cl)ccc2-3)n1', 'inhibition at 10 µM', 1.53),
  ('C[C@H]1N=C(c2ccccc2F)c2cc(Cl)ccc2-n2cnc(-c3nc(C4CC4)no3)c21', 'inhibition at 10 µM', 11.9),
  ('C#Cc1ccc2c(c1)C(c1ccccc1Cl)=N[C@H](C)c1c(C(=O)N(C)CC)ncn1-2', 'inhibition at 10 µM', -2.22);

Please examine the following record next.
IN: Give recorded inhibition at 10 µM. `C#Cc1ccc2c(c1)C(c1ccccc1Cl)=N[C@H](C)c1c(C(=O)NC)ncn1-2`
OUT: -12.3
